pIC50: −log10 of the molar value.
Reported pIC50 on PIK3CG (human) (UniProt P48736) for assorted compounds, compiled from publications.

| query_smiles | comparison_sign | pIC50 |
| --- | --- | --- |
| CNC(=O)[C@@H](C)Cn1cnc2ccc(-c3cnc(OC)c(NS(=O)(=O)c4cc(F)cc(F)c4)c3)cc2c1=O | = | 7.42 |
| Cc1cccc2cc(Cn3nc(I)c4c(N)ncnc43)n(C3CC3)c(=O)c12 | > | 7.00 |
| CC(=O)Nc1nc2ccc(-c3nn(Cc4cc5cccc(C)c5c(=O)n4-c4ccccc4)c4ncnc(N)c34)cc2[nH]1 | > | 7.00 |
| Cn1cc(/C=C2\Oc3cc(O)cc(O)c3C2=O)c2c(-c3ccccc3Cl)ccnc21 | = | 6.57 |
